molecular target: Histone-lysine N-methyltransferase KMT5B (Homo sapiens) (UniProt Q4FZB7); experiment: Inhibition of SUV420H1 (unknown origin) using biotin-labeled histone substrate assessed as residual activity at 50 uM in presence of [3H-Me]SAM by scintillation proximity assay relative to control
Sequence (Q4FZB7 whole entry, looked up): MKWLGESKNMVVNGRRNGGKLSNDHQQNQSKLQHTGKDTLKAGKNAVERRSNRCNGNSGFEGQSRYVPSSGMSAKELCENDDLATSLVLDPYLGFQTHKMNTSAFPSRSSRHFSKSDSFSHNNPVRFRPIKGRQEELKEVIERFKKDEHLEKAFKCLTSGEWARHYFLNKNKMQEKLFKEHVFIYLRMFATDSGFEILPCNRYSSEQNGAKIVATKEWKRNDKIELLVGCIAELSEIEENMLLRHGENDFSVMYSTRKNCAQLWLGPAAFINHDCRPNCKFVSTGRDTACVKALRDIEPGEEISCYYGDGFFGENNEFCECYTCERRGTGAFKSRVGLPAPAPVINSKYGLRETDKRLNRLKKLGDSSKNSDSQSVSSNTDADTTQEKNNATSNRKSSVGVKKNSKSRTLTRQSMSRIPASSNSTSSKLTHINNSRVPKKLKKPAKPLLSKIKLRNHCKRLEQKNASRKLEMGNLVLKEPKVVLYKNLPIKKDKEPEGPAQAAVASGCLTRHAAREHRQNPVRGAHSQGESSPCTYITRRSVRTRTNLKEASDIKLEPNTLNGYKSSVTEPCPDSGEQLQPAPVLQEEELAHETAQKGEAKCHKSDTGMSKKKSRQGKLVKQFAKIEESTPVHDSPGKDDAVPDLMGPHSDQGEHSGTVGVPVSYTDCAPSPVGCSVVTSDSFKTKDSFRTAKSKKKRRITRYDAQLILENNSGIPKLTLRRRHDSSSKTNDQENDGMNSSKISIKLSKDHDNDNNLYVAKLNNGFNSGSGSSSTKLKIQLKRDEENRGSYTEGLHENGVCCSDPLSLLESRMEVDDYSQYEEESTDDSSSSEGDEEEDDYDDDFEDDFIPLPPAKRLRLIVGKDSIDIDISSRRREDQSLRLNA
measure-name: Activity (%)
// units = %; emit number, no label

Observe how each entry below is paired with its result.
[[record]]
molecule = "O=C(c1cccc(Br)c1)N1CCC2CNCC2C1 (configuration not stated)"
measure_name = "Activity"
readout_number = 104

[[record]]
molecule = "CN1CCC[C@@H]2CN(C(=O)c3cccc(Br)c3)C[C@@H]21"
measure_name = "Activity"
readout_number = 106

[[record]]
molecule = "O=C(c1cccc(Br)c1)N1CC[C@H]2NCC[C@H]2C1"
measure_name = "Activity"
readout_number = 107


Per the record, CN1CCCCC12CCCN(C(=O)c1cccc(Br)c1)C2 (configuration not stated) has Activity of 106

src = ChEMBL document CHEMBL4477270
